# System: AR mRNA
# procedure summary: Dose-dependent antisense inhibition of human AR in HuVEC cells (electroporation, qRT-PCR RTS3559, IC50)
# Format: cell-based
# assay setup: 1000.0 nM; HuVEC, ~16 h; Table 14
Oligonucleotides are written 5' to 3', each unit as a sugar letter and its base; * is a phosphorothioate linkage, no mark a phosphodiester; rarer units and linkages stand in square brackets, end groups in braces. Plain capitals give the bases only. e = 2'-O-(2-methoxyethyl) (MOE); k = constrained ethyl (cEt); [5mC] = 5-methylcytosine; d = 2'-deoxy (DNA)
As shown below, each of these substances has a reported percent inhibition of AR value.
// note: answer is a bare numeric in %

Query string: Supply reported percent inhibition of AR belonging to this substance: 549372 (kA*kA*kG*dT*dT*dG*dT*dA*dG*dT*dA*dG*dT*k[5mC]*kG*k[5mC]) [compound 549372]
Result string: 80

Query string: Supply reported percent inhibition of AR belonging to this substance: 560133 (antisense kA*kT*kG*dG*dT*dT*dG*dA*dT*dT*dT*dA*kA*kT*kG*eG) [compound 560133]
Result string: 79

Proceeding to the next substance to report its percent inhibition of AR.
Query string: Supply reported percent inhibition of AR belonging to this substance: 569220 (antisense eA*kT*kG*kG*dT*dT*dG*dA*dT*dT*dT*dA*kA*kT*kG*eG) [compound 569220]
Result string: 78
